System: 521955-158-R2-J5-PDC complex spheroid viability;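 note: spheroids exposed to agents for one week before reading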
experimental protocol: Anticancer human tumor 521955-158-R2-J5-PDC patient-derived pancreatic carcinoma cell line growth inhibition [GQUAD]
condition description: second compound 1 µM; first compound 0.1 µM; active compounds read low
In plain terms, low viability, T/C, meaning strictly below 20%, gives t, and everything else gives f.

A selection of reference data follows.
molecule: Cc1cccc(N(C)C(=O)C2C(O)CCN2c2nc(C)cc(C(F)(F)F)c2C#N)c1 (stereo not given) + CN(C)c1ccc(Nc2c3ccc(NC(=O)CCN4CCCC4)cc3nc3cc(NC(=O)CCN4CCCC4)ccc23)cc1
class label: f
//
molecule: O=C(NO)c1cnc(N2CCN(S(=O)(=O)c3ccc4ccccc4c3)CC2)nc1 + Cc1cnc(CNC(=O)c2c(=O)c3ccc(N4CCCN(C)CC4)nc3n3c2sc2ccccc23)cn1
class label: f
//
molecule: CC(C)(O)C1CCC(Nc2ccc3ncc(-c4cccc(C(F)(F)F)c4)n3n2)CC1 (stereo not given) + CN(C)c1ccc(Nc2c3ccc(NC(=O)CCN4CCCC4)cc3nc3cc(NC(=O)CCN4CCCC4)ccc23)cc1
class label: f
//
molecule: C#Cc1c(F)ccc2cc(O)cc(-c3ncc4c(N5CC6CCC(C5)N6)nc(OCC56CCCN5CC(F)C6)nc4c3F)c12 (stereo not given) + Cc1[nH]c2ccc(F)cc2c1-c1nc2c3cccnc3c3ncccc3c2[nH]1
class label: f
//
molecule: Cc1cccc(N(C)C(=O)C2C(O)CCN2c2nc(C)cc(C(F)(F)F)c2C#N)c1 (stereo not given) + Cc1cnc(CNC(=O)c2c(=O)c3ccc(N4CCCN(C)CC4)nc3n3c2sc2ccccc23)cn1
class label: f
//
molecule: CC1COCCN1c1cc(C2(S(C)(=N)=O)CC2)nc(-c2ccnc3[nH]ccc23)n1 (stereo not given) + CN(C)c1ccc(Nc2c3ccc(NC(=O)CCN4CCCC4)cc3nc3cc(NC(=O)CCN4CCCC4)ccc23)cc1
class label: f
//
molecule: COc1ncnc(C2CC2)c1-c1ncc2cnn(Cc3ccc(-c4nc(C(F)(F)F)cn4C(C)C)cc3)c2n1 + Cc1cnc(CNC(=O)c2c(=O)c3ccc(N4CCCN(C)CC4)nc3n3c2sc2ccccc23)cn1
class label: t
//
molecule: CC(C)n1c(=O)n(C)c2cnc3cc(F)c(-c4ccc(OCCCN5CCCCC5)nc4)cc3c21 + CN(C)c1ccc(Nc2c3ccc(NC(=O)CCN4CCCC4)cc3nc3cc(NC(=O)CCN4CCCC4)ccc23)cc1
class label: f

Is 20% strictly greater than the molecule's reported viability, T/C? molecule: CCCS(=O)(=O)Nc1ccc(F)c(C(=O)c2c[nH]c3ncc(-c4ccc(Cl)cc4)cc23)c1F + Cc1cnc(CNC(=O)c2c(=O)c3ccc(N4CCCN(C)CC4)nc3n3c2sc2ccccc23)cn1
t

Is 20% strictly greater than the molecule's reported viability, T/C? molecule: Nc1ccn(C2OC(CO)C(O)C2(F)F)c(=O)n1 (stereo not given) + CN(C)c1ccc(Nc2c3ccc(NC(=O)CCN4CCCC4)cc3nc3cc(NC(=O)CCN4CCCC4)ccc23)cc1
f

Is 20% strictly greater than the molecule's reported viability, T/C? molecule: O=C(NO)c1cnc(N2CCN(S(=O)(=O)c3ccc4ccccc4c3)CC2)nc1 + CN(C)c1ccc(Nc2c3ccc(NC(=O)CCN4CCCC4)cc3nc3cc(NC(=O)CCN4CCCC4)ccc23)cc1
f

Is 20% strictly greater than the molecule's reported viability, T/C? molecule: Nc1ccn(C2OC(CO)C(O)C2(F)F)c(=O)n1 (stereo not given) + Cc1[nH]c2ccc(F)cc2c1-c1nc2c3cccnc3c3ncccc3c2[nH]1
f

Is 20% strictly greater than the molecule's reported viability, T/C? molecule: CC(=O)O[C@H]1C(=O)[C@@]2(C)[C@H]([C@H](OC(=O)c3ccccc3)[C@]3(O)C[C@H](OC(=O)[C@H](O)[C@@H](NC(=O)c4ccccc4)c4ccccc4)C(C)=C1C3(C)C)[C@]1(OC(C)=O)CO[C@@H]1C[C@@H]2O + Cc1cnc(CNC(=O)c2c(=O)c3ccc(N4CCCN(C)CC4)nc3n3c2sc2ccccc23)cn1
t
